# measurement-notes: qHTS assay to identify small molecule antagonists of the retinoic acid receptor (RAR) signaling pathway (AID 1159552; note: nearly all actives have a fitted effect of over 50% in size)
# assay-setup: C3RL4 RARE luciferase reporter, retinol-stimulated, 6 h; series mostly up to 92.4 µM
Results filed as inconclusive are left out. Active and inactive are the calls of the source. Calls come from the whole dose curve; as a rule, active = well fitted inhibition curve with a large enough effect in the repeat runs; inconclusive = weak or mixed curves, or effect the other way; inactive = no such curve, though single readings can be large or run the other way.
Outcome codes: active, inactive

| molecule | label |
| --- | --- |
| CC(C1CC1)C(O)(Cn1cncn1)c1ccc(Cl)cc1 (centres undefined) | inactive |
| CC(C)(C)C(=O)C(Oc1ccc(Cl)cc1)n1cncn1 (centres undefined) | inactive |
| Oc1c(Cl)cccc1Cl | inactive |
| COC(=O)C(C)Oc1ccc(Oc2ccc(Cl)cc2Cl)cc1 (centres undefined) | inactive |
| O=C(Cc1ccccc1)OCc1ccccc1 | inactive |
| CCCCCCBr | inactive |
| COC(=O)c1ccccc1S(=O)(=O)NC(=O)N(C)c1nc(C)nc(OC)n1 | inactive |
| C=CC1CC=CCC1 (centres undefined) | inactive |
| CCC#N | inactive |
| C=CCC1=C(C)[C@@H](OC(=O)[C@@H]2[C@@H](C=C(C)C)C2(C)C)CC1=O | active |
| Clc1cccc(N2CCNCC2)c1 | inactive |
| O=[N+]([O-])c1ccc(CBr)cc1 | inactive |
| CC1COC2(c3ccccc3Cl)c3cc(Cl)ccc3NC(=O)CN12 (centres undefined) | active |
| CC1(C)CON(Cc2ccccc2Cl)C1=O | inactive |

---

# assayed-target: Progesterone receptor (Homo sapiens) (UniProt P06401)
# Sequence (P06401 whole entry, looked up): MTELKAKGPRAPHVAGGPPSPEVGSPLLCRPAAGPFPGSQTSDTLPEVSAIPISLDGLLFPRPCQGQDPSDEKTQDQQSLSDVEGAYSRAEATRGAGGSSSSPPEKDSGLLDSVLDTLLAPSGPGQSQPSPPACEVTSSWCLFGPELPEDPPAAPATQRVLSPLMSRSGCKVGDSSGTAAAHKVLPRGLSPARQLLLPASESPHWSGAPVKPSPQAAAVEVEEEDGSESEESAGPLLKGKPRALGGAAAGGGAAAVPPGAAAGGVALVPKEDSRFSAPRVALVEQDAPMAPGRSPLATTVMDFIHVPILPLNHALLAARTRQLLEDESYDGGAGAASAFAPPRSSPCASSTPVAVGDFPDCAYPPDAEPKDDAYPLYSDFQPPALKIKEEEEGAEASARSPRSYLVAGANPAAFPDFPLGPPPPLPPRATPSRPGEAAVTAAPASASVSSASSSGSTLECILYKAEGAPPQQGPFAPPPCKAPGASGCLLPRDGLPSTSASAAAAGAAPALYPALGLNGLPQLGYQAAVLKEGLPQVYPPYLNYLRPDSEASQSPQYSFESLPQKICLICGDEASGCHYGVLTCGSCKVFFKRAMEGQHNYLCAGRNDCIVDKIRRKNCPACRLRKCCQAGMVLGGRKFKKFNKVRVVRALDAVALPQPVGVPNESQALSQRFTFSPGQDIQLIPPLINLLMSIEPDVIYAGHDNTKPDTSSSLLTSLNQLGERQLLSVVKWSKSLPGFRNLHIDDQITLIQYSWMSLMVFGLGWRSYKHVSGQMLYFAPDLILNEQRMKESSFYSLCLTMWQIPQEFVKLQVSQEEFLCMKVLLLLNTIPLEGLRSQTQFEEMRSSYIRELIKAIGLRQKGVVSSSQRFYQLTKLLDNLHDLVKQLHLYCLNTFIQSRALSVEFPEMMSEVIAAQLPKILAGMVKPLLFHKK
# measurement-notes: qHTS assay to identify small molecule antagonists of the progesterone receptor (PR) signaling pathway (AID 1346795); note: potency is the fitted concentration of half-maximal effect
# assay-setup: PR-UAS-bla HEK293T, beta-lactamase FRET ratio, 16 h; series mostly up to 92.4 µM
Inconclusive results are not listed. Activity calls are given as the source filed them. Calls follow the shape of the dose curve; as a rule, active = well fitted inhibition curve with a large enough effect in the signal ratio in the repeat runs (not every such curve was filed as active); inconclusive = weak or mixed curves; inactive = flat fitted curve, though single readings scatter; the % refers to the signal ratio.

| molecule | Potency |
| --- | --- |
| C=C(C)CN(CC)c1c([N+](=O)[O-])cc(C(F)(F)F)cc1[N+](=O)[O-] | inactive |
| ClC(Br)Br | inactive |
| CC(C(=O)c1ccccc1)N(C)C (configuration not stated) | inactive |
| CN1CCN(C(=O)O[C@H]2c3nccnc3C(=O)N2c2ccc(Cl)cn2)CC1 | inactive |
| CCC(=O)C(CCN(C)C)(c1ccccc1)c1ccccc1 | inactive |
| CN1C[C@@H](NS(=O)(=O)N(C)C)C[C@@H]2c3cccc4c3c(cn4C)C[C@H]21 | inactive |
| Nc1c(Br)cc([N+](=O)[O-])cc1[N+](=O)[O-] | 27.6 µM (active) |
| C=C(C)[C@@H]1CC=C(C=O)CC1 | inactive |
| CCCCC(=O)Cl | inactive |
| COc1cc(OC)nc(NC(=O)NS(=O)(=O)c2ncccc2C(=O)N(C)C)n1 | inactive |
| CC(C)(C)NCC(O)c1cc(Cl)c(N)c(Cl)c1 (configuration not stated) | inactive |
| O=C(Cc1ccccc1)OCc1ccccc1 | inactive |

---

# measurement-notes: Caspase-3/7 induction in HepG2 cells by small molecules, qHTS cell viability counter screen (AID 1346981); note: nearly all actives have a fitted effect of over 30% in size
# assay-setup: CellTiter-Fluor fluorescence, 17 h; series mostly up to 92.4 µM
Records with an inconclusive call do not appear. The source made the active and inactive calls. Calls follow the shape of the dose curve; as a rule, active = well fitted cell-killing curve with a large enough effect in the repeat runs; inconclusive = weak or mixed curves, or effect the other way; inactive = flat fitted curve, though single readings scatter.
Outcome codes: Y (active), N (inactive)

| molecule | label |
| --- | --- |
| ClC(Cl)C(Cl)Cl | N |
| COP(N)(=S)Oc1ccccc1C(=O)OC(C)C (stereo not drawn) | N |
| O=[N+]([O-])c1ccc(CBr)cc1 | N |
| O=[N+]([O-])c1cccc2c([N+](=O)[O-])cccc12 | N |
| CC(=O)CC(c1ccc(Cl)cc1)c1c(O)c2ccccc2oc1=O (stereo not drawn) | N |
| CC(Cl)(Cl)[N+](=O)[O-] | N |
| COc1ncc(F)c2nc(S(=O)(=O)Nc3c(F)cccc3F)nn12 | N |
| CCCCOP(=O)(O)OCCCC | N |
| CCCCc1c(C)nc(NCC)[nH]c1=O | N |
| CCCCCCBr | N |
| COc1cccc2c1cc([N+](=O)[O-])c1c(C(=O)O)cc3c(c12)OCO3 | Y |
| O=C1OC(CCN2CCCCC2)OC1(c1ccccc1)c1ccccc1 (stereo not drawn) | N |
| CN1C[C@@H](NS(=O)(=O)N(C)C)C[C@@H]2c3cccc4c3c(cn4C)C[C@H]21 | N |

---

# measurement-notes: qHTS assay to identify small molecule agonists of the endoplasmic reticulum stress response signaling pathway - cell viability counter screen (AID 1159517); note: nearly all actives have a fitted effect of over 50% in size
# assay-setup: ESRE-bla HeLa viability, CellTiter-Glo luminescence, 5 h; series mostly up to 61 µM
# Source text: U.S. Tox21 Program National Center for Advancing Translational Sciences [NCATS] NIH Chemical Genomics Center [NCGC] U.S. Environmental Protection Agency [EPA] National Institutes of Environmental Health Sciences [NIEHS] National Toxicology Program [NTP] U.S. Food and Drug Administration [FDA] Tox21 Assay Overview: Endoplasmic Reticulum (ER) plays an important role in cellular signaling, protein folding/maturation, stress response, lipid biosynthesis, calcium storage and release etc. […]
Inconclusive results are not listed. Active and inactive are the calls of the source. Calls come from the whole dose curve.
Outcome codes: 1 (yes) (active), 0 (no) (inactive)

| molecule | label |
| --- | --- |
| CC(C)[N+](=O)[O-] | 0 (no) |
| CC(COc1ccc(Oc2ccccc2)cc1)Oc1ccccn1 (centres undefined) | 0 (no) |
| COP(=S)(OC)Oc1c(Cl)cc(C)cc1Cl | 0 (no) |
| CC(C=O)Cc1ccc2c(c1)OCO2 (centres undefined) | 0 (no) |
| Cc1cnc[nH]1 | 0 (no) |
| CC(CC(C#N)(c1ccccc1)c1ccccc1)N(C)C (centres undefined) | 0 (no) |
| CCC#N | 0 (no) |
| O=[N+]([O-])c1cccc2cccnc12 | 0 (no) |
| COc1cccc(C(=O)NN(C(=O)c2cc(C)cc(C)c2)C(C)(C)C)c1C | 0 (no) |
| COC(=O)c1ccccc1S(=O)(=O)NC(=O)N(C)c1nc(C)nc(OC)n1 | 0 (no) |
| COc1cc(OC)nc(Oc2cccc(Oc3nc(OC)cc(OC)n3)c2C(=O)O)n1 | 0 (no) |
| COP(N)(=S)Oc1ccccc1C(=O)OC(C)C (centres undefined) | 0 (no) |
| O=[N+]([O-])c1ccc(CBr)cc1 | 1 (yes) |
| Fc1cc(Br)ccc1CBr | 0 (no) |
| O=NN1CCN(N=O)CC1 | 0 (no) |
| OCCBr | 0 (no) |
| NC(=O)O | 0 (no) |
| CC(C)(C)NCC(O)c1cc(Cl)c(N)c(Cl)c1 (centres undefined) | 0 (no) |
| CCC(C)n1c(=O)[nH]c(C)c(Br)c1=O (centres undefined) | 0 (no) |
| O=C(O)C(Br)CBr (centres undefined) | 0 (no) |
| ClCC(Cl)(Cl)Cl | 0 (no) |
| CC(C)CP(=S)(S)CC(C)C | 0 (no) |
| CCOP(=O)(N=C1SCCS1)OCC | 0 (no) |
| OC(c1ccccc1)(c1ccccc1)C1CCNCC1 | 0 (no) |
| CCOC(=O)C1(c2ccccc2)CCN(CCc2ccc(N)cc2)CC1 | 0 (no) |
| CC(=O)[C@H]1CC[C@H]2[C@@H]3CC[C@H]4C[C@H](O)CC[C@]4(C)[C@H]3C(=O)C[C@]12C | 0 (no) |
| CCN(Cc1ccc(Cl)nc1)/C(=C/[N+](=O)[O-])NC | 0 (no) |
| ClC(Cl)(Cl)C(Cl)(Cl)Cl | 0 (no) |
| CCSC(=O)N(CC)C1CCCCC1 | 0 (no) |

---

# assayed-target: Nuclear receptor subfamily 1 group I member 3 (Homo sapiens) (UniProt Q14994)
# Sequence (Q14994 whole entry, looked up): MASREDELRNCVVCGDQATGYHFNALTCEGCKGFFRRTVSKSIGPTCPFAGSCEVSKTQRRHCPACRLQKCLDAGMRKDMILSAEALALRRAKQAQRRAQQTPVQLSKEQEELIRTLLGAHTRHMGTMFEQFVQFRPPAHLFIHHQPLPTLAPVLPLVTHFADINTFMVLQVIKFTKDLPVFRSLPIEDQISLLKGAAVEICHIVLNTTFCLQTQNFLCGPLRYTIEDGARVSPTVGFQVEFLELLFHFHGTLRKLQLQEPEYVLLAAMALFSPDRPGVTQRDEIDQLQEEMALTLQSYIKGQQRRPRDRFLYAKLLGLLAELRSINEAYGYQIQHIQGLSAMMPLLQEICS
# measurement-notes: qHTS assay to identify small molecule agonists of the constitutive androstane receptor (CAR) signaling pathway (AID 1224839); note: nearly all actives have a fitted effect of over 15% in size;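 for activation: HepG2 cells stably carrying human CAR and a CYP2B6 luciferase reporter; % is set by controls: 0 for no effect and ±100 for the full control effect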
# assay-setup: HepG2 hCAR CYP2B6-luciferase, agonist mode, 24 h; series mostly up to 92.4 µM
Inconclusive results are not listed. Activity calls are given as the source filed them. Calls follow the shape of the dose curve; as a rule, active = well fitted activation curve with a large enough effect in the repeat runs; inconclusive = weak or mixed curves; inactive = no such curve, though single readings can be large or run the other way.
Outcome codes: 1 (yes) for active, 0 (no) for inactive

| compound | label |
| --- | --- |
| N#CC(O)c1ccccc1 (stereo unspecified) | 0 (no) |
| CCC1(c2ccccc2)C(=O)N=C(O)NC1=O (stereo unspecified) | 0 (no) |
| COc1cc2c(cc1OC)[C@@]13CCN4CC5=CCO[C@H]6CC(=O)N2[C@H]1[C@H]6[C@H]5C[C@H]43 | 0 (no) |
| CCC(=O)C(CCN(C)C)(c1ccccc1)c1ccccc1 | 0 (no) |
| O=NN1CCCCC1 | 0 (no) |
| N#CC(CCc1ccc(Cl)cc1)(Cn1cncn1)c1ccccc1 (stereo unspecified) | 1 (yes) |
